Test system: MOLT-4
measurement notes: NCI tumour cell line growth inhibition, 48 h
Activity calls are given as the source filed them. Rule as the data show it: active = GI50 up to about 1.1 µM and inactive = higher.
result type: GI50

Q. For the compound `CCC(CON(C)c1ccccc1)(SC)SC` , what GI50 is on record?
A. > 100 µM (inactive)

Q. Same question, `C#CCNC(=O)N(CC#C)N=O` this time
A. 31 µM (inactive)

Q. Next record, please: `COc1cc(-c2nccc3cc(OC)c(OC)cc23)ccc1O`
A. 29.2 µM (inactive)

Q. Next entry: C=C(C)C(CC=C(C)C)Cc1c(O)cc(OC)c2c1OC(c1ccc(O)cc1O)C(O)C2=O (stereo not drawn)
A. > 100 µM (inactive)

Q. Also COc1cc(C(C)O)c[n+](CCC2CNc3ccccc32)c1 (stereo not drawn) ?
A. > 100 µM (inactive)

Q. Next up: COC(=O)C1(Cc2ccc3c(c2)CCC3)Cc2ccc3c(c2C1=O)CCC3 (stereo not drawn)
A. 4.06 µM (inactive)

Q. What would you report for `Clc1ccc(CSCc2ccc(Cl)cc2Cl)c(Cl)c1` ?
A. 19.4 µM (inactive)

Q. Follow-up item: `C[C@@H](NC(=O)Cn1c(Cl)nc2ccccc21)c1ccccc1`
A. > 100 µM (inactive)
